METHOD_SUMMARY: Phase 1 trial Part II: plasma pharmacokinetics after repeated once-daily oral doses over 14 days
Format: in vivo, human (healthy male volunteers)
MEASUREMENT_CONTEXT: male, human, plasma; after 14-days of repeated once daily oral administrations of 20 mg (so in the source); read-out: median Tmax
METRIC_NAME: Tmax

Exercise: What Tmax value was documented for this compound, `COc1ccc2c(c1)CN(Cc1ccc(C(=O)O)cc1)CCS2.O=C(O)/C=C/C(=O)O` ?
Solution: 3 to 3.5 h

* * *

METHOD_SUMMARY: Phase 1 trial Part II: concentration in quadriceps muscle biopsy on Day 13
Assay type: in vivo, human (healthy male volunteers)
MEASUREMENT_CONTEXT: male, human, quadriceps muscle / plasma, oral; summary, within the dose range 20-240 mg
Experimental: The primary objective was to assess the safety of escalating repeated oral doses of Compound 1 over 14 days compared with placebo in healthy male volunteers. […] For Study part II (for all groups), Concentrations of Compound 1 were determined in muscle by performing muscle biopsy on quadriceps muscle on day 13, at least 3 hours after morning dose. Plasma and muscle samples were analyzed by LC-MS/MS method. […]
METRIC_NAME: Kp at 3 h

Exercise: What Kp at 3 h value was documented for this compound, COc1ccc2c(c1)CN(Cc1ccc(C(=O)O)cc1)CCS2.O=C(O)/C=C/C(=O)O [Compound 1] ?
Solution: 0.04 to 0.08
